tested on: P. aeruginosa ATCC 27853; experiment: Broth microdilution assay, P. aeruginosa; type: cell-based, Pseudomonas aeruginosa; conditions: 50 µM, 24 h, inhibition of growth, mean ± SD
property: Inhibitory effect (%) P. aeruginosa ATCC 27853
Write down the numeric answer in % and omit the unit.

// below: answered compounds
[[record]]
compound = "CCC(=O)OCC12CCC3(C(C)C)C1=C1C(CC4C5(C)CCC(OC(=O)CC)C(C)(C)C5CCC4(C)C1(C)CC2)n1c(=O)n(C)c(=O)n13 (stereo not shown) [Compound 45]"
experimental_target = "P. aeruginosa ATCC 27853"
recorded_value = 3.7

[[record]]
compound = "CC(C)C12CCC3(COC(=O)C4CCCCC4)CCC4(C)C(=C31)C(CC1C3(C)CCC(OC(=O)C5CCCCC5)C(C)(C)C3CCC14C)n1c(=O)n(C)c(=O)n12 (stereo not shown) [Compound 48]"
experimental_target = "P. aeruginosa ATCC 27853"
recorded_value = 7.1

[[record]]
compound = "C=C(C)C1CCC2(C(=O)NC(CC(=O)O)C(=O)O)CCC3(C)C(CCC4C5(C)CCC(=O)C(C)(C)C5CCC43C)C12 [Compound 27, L-aspartyl amide of betulonic acid]"
experimental_target = "P. aeruginosa ATCC 27853"
recorded_value = -1.2


Input: Given the compound CCCC(=O)OCC12CCC3(C(C)C)C1=C1C(CC4C5(C)CCC(OC(=O)CCC)C(C)(C)C5CCC4(C)C1(C)CC2)n1c(=O)n(C)c(=O)n13 (stereo not shown) [Compound 46] , what is its reported Inhibitory effect (%) P. aeruginosa ATCC 27853?
Output: 5.2

Input: Report Inhibitory effect (%) P. aeruginosa ATCC 27853 for C=C(C)C1CCC2(C=O)CCC3(C)C(CCC4C5(C)CCC(=O)C(C)(C)C5CCC43C)C12 (stereo not shown) [Compound 22] please.
Output: 4.5

Input: Looking for the measured Inhibitory effect (%) P. aeruginosa ATCC 27853 of CC(=O)OCC12CCC3(C(C)C)C1=C1C(CC4C5(C)CCC(OC(C)=O)C(C)(C)C5CCC4(C)C1(C)CC2)n1c(=O)n(-c2ccc(F)cc2)c(=O)n13 (stereo not shown) [Compound 37] , can you help?
Output: 4.6
